Listing: inhibition at 0.111 µM of selected compounds
Target: recombinant human SAE enzyme (Homo sapiens (Human))
Sequence (Q9UBT2 whole entry): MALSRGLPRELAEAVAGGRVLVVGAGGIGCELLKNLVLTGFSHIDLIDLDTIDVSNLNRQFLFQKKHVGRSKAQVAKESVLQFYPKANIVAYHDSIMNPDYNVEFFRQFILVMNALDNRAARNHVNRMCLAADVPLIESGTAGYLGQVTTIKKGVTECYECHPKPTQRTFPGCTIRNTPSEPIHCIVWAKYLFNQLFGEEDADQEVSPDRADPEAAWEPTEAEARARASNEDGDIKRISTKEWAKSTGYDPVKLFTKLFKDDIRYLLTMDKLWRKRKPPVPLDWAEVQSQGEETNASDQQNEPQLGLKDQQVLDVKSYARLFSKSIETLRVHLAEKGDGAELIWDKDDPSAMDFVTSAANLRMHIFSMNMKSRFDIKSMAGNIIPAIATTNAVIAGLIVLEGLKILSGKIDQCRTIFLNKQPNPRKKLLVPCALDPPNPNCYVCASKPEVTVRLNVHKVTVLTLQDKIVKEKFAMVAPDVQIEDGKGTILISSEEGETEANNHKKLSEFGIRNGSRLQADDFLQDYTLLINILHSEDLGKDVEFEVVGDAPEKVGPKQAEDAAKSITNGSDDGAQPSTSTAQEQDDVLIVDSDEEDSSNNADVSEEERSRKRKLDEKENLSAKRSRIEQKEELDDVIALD
Sequence (Q9UBE0 whole entry partner): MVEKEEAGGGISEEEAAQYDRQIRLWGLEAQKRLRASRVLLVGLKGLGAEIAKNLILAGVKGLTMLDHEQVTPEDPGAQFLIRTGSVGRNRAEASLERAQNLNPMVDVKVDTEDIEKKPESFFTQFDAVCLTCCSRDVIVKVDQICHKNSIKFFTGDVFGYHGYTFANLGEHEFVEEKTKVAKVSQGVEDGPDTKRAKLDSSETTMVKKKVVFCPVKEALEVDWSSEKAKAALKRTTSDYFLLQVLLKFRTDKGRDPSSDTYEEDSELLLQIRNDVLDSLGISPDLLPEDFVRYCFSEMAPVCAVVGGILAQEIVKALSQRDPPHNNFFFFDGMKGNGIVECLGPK
Assay: SAE HTRF enzyme assay
Type: biochemical
Conditions: Concentration 0.111 μM; read-out: Percent Inhibition
Kindly provide the numeric value in % only, without the unit symbol.

>  <compound>
NS(=O)(=O)OC[C@H]1C[C@@H](Nc2ncncc2C(=O)c2cc(Sc3cccc(C(F)(F)F)c3)c(Cl)s2)C[C@@H]1O [I-189]

>  <inhibition at 0.111 µM / %>
78

$$$$
>  <compound>
NS(=O)(=O)OC[C@H]1C[C@@H](Nc2ncncc2C(=O)c2cc(Cc3ccccc3)c(Cl)s2)[C@@H](F)[C@@H]1O [I-162]

>  <inhibition at 0.111 µM / %>
91

$$$$

Quick note, inhibition at 0.111 µM for NS(=O)(=O)OC[C@H]1C[C@@H](Nc2ncncc2C(=O)c2cc(CN3Cc4ccccc4C3)cs2)C[C@@H]1O [I-187] landed at 76

Quick note, inhibition at 0.111 µM for Cc1ccc(Cc2csc(C(=O)c3cncnc3N[C@@H]3C[C@H](COS(N)(=O)=O)[C@@H](O)C3)c2)o1 [I-237] landed at 25

Quick note, inhibition at 0.111 µM for NS(=O)(=O)OC[C@H]1C[C@@H](Nc2ncncc2C(=O)c2cc(CN3CCn4ccnc4C3)cs2)C[C@@H]1O [I-190] landed at 77
